// IC50 lookup, one value per entry
Tested on: PC-3
TEST DESCRIPTION: Antiproliferative activity against human PC3 cells after 72 hrs by MTT assay
Assay type: functional, cell-based
TEST SETTINGS: PC-3, 72 h
READOUT LABEL: IC50

>>> print(df.to_string())
                                given_smiles  readout_label  observed_measurement
 0  CCOC(=O)Cc1cc(Br)c(OC(=O)c2ccncc2)c(Br)c1           IC50              > 100 µM
 1                NC(=O)Cc1cc(Br)c(O)c(Br)c1           IC50              > 100 µM
 2  CCOC(=O)Cc1cc(Br)c(OC(=O)Cc2ccc(OC)cc2)c(Br)c1           IC50              > 100 µM
 3            CC(=O)Oc1c(Br)cc(CC(N)=O)cc1Br           IC50              > 100 µM
 4       CCOC(=O)Cc1cc(Br)c(OCCC(C)C)c(Br)c1           IC50               49.2 µM
 5  COc1ccc(CC(=O)Oc2c(Br)cc(CC(N)=O)cc2Br)cc1           IC50              > 100 µM
 6  CCOC(=O)Cc1cc(Br)c(OC/C=C(/C)CC/C=C(/C)CCC=C(C)C)c(Br)c1           IC50               16.5 µM
 7     CCOC(=O)Cc1cc(Br)c(OCc2ccccc2)c(Br)c1           IC50               29.7 µM
 8   NC(=O)Cc1cc(Br)c(OC(=O)c2ccccc2)c(Br)c1           IC50              > 100 µM
 9        CCOC(=O)Cc1cc(Br)c(OC(C)=O)c(Br)c1           IC50              > 100 µM
10  CCOC(=O)Cc1cc(Br)c(OCCCc2ccc(OC)cc2)c(Br)c1           IC50                 40 µM
11              CCOC(=O)Cc1cc(Br)c(O)c(Br)c1           IC50              > 100 µM
12  CCOC(=O)Cc1cc(Br)c(OC(=O)c2ccccc2)c(Br)c1           IC50              > 100 µM
